self-aminoacylation: recorded values
System: biotinyl-Phe-oxazolone
experiment summary: self-aminoacylation, catalytic enhancement (BFO) (fold over background); higher = more active; k-Seq, kA / k0A0; sequences stand for … in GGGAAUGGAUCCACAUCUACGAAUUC…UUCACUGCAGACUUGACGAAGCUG
Variants at the floor of the assay were thinned out.
reported metric: self-aminoacylation

{"columns": ["seq string", "reported metric", "obs value"],
 "data": [
  ["AUUACCCUGGUCAUUGAGUGA [Fam2.1 aminoacylation ribozyme variant]", "self-aminoacylation", 44.1],
  ["CUACUACAAACAACCGGUCUG [Fam1A.1 aminoacylation ribozyme variant]", "self-aminoacylation", 1.12],
  ["AUUGCCCUGGUAAUCGAGUGA [Fam2.1 aminoacylation ribozyme variant]", "self-aminoacylation", 56],
  ["AUUGCCCUGGUCAUCGACUGA [Fam2.1 aminoacylation ribozyme variant]", "self-aminoacylation", 1.08],
  ["AUUACCCUGGGCGUCGAGUGA [Fam2.1 aminoacylation ribozyme variant]", "self-aminoacylation", 1.06],
  ["AUUACCCGGGUCAGCGAGUGA [Fam2.1 aminoacylation ribozyme variant]", "self-aminoacylation", 55.5],
  ["CCAAACUUCAAGCAAUCGUUC [Fam1B.1 aminoacylation ribozyme variant]", "self-aminoacylation", 0.813],
  ["AAUCUCCUAGGUCAUCGGGUG [Fam2.2 aminoacylation ribozyme variant]", "self-aminoacylation", 35.1],
  ["AUUCAACUAGGUCAUCUGGUG [Fam2.2 aminoacylation ribozyme variant]", "self-aminoacylation", 17.7],
  ["CUAUUUCAAACAAUAGGUCUG [Fam1A.1 aminoacylation ribozyme variant]", "self-aminoacylation", 1.03],
  ["GCCCACUUCAAGCAAUCGGUC [Fam1B.1 aminoacylation ribozyme variant]", "self-aminoacylation", 24.1],
  ["CUACUUCAAAUAAUCGGUCUC [Fam1A.1 aminoacylation ribozyme variant]", "self-aminoacylation", 15.6],
  ["CCACACGUCAAGCAAUCAGUC [Fam1B.1 aminoacylation ribozyme variant]", "self-aminoacylation", 0.738],
  ["CCACACUUCAAGCAGUAGGUC [Fam1B.1 aminoacylation ribozyme variant]", "self-aminoacylation", 0.807],
  ["AUUCACCUAUGUCAUCGGGGG [Fam2.2 aminoacylation ribozyme variant]", "self-aminoacylation", 6.23],
  ["AAGUUUGCUAAUAGCCGCAAA [Fam3.1 aminoacylation ribozyme variant]", "self-aminoacylation", 1.38],
  ["UUUAACCUGGUCAUCGAGUGA [Fam2.1 aminoacylation ribozyme variant]", "self-aminoacylation", 11.2],
  ["AUUCAGCUCGGUCAUCGGGUG [Fam2.2 aminoacylation ribozyme variant]", "self-aminoacylation", 78.7],
  ["AAGUCUGCUAAUAGUCGGAAG [Fam3.1 aminoacylation ribozyme variant]", "self-aminoacylation", 18.4],
  ["AUUCAACUACGUCAUCGGGUG [Fam2.2 aminoacylation ribozyme variant]", "self-aminoacylation", 26],
  ["AUUCACUUAUGUCAUCGGGUG [Fam2.2 aminoacylation ribozyme variant]", "self-aminoacylation", 42.6],
  ["AAGUUUGUUAAUAGGCGCAAG [Fam3.1 aminoacylation ribozyme variant]", "self-aminoacylation", 1.05],
  ["AAGUUUUCUAAUAGUCGCAAC [Fam3.1 aminoacylation ribozyme variant]", "self-aminoacylation", 2.43],
  ["CCACACUUCAAUCAAUCGGUC [Fam1B.1 aminoacylation ribozyme variant]", "self-aminoacylation", 42.7],
  ["AAGUUUGGUAAUAGUCGCAAG [Fam3.1 aminoacylation ribozyme variant]", "self-aminoacylation", 2.13],
  ["CUUCUUCAAACAACCGGUCUG [Fam1A.1 aminoacylation ribozyme variant]", "self-aminoacylation", 0.852],
  ["CCACAAUUCAAGCAGUCGGUC [Fam1B.1 aminoacylation ribozyme variant]", "self-aminoacylation", 1.06],
  ["CUUACCCUUGUCAUCGAGUGA [Fam2.1 aminoacylation ribozyme variant]", "self-aminoacylation", 7.91],
  ["UCACACUUCAAGCAAUCGGUG [Fam1B.1 aminoacylation ribozyme variant]", "self-aminoacylation", 29],
  ["CCACACUUCCCGCAAUCGGUC [Fam1B.1 aminoacylation ribozyme variant]", "self-aminoacylation", 0.932],
  ["AUUUCCCUGGUCAUCGAGAGA [Fam2.1 aminoacylation ribozyme variant]", "self-aminoacylation", 1.31],
  ["AAGCUCGCUAAUAGUCGCAAG [Fam3.1 aminoacylation ribozyme variant]", "self-aminoacylation", 3.66],
  ["UCACACUUCAAGCUAUCGGUC [Fam1B.1 aminoacylation ribozyme variant]", "self-aminoacylation", 1.11],
  ["AAGUUUGCUUAUAGUCGCUAG [Fam3.1 aminoacylation ribozyme variant]", "self-aminoacylation", 1],
  ["CCAUACUUCAAGUAAUCGGUC [Fam1B.1 aminoacylation ribozyme variant]", "self-aminoacylation", 8.18]
]}
